Molecular target: T1, cyno PRLR ECD-his6 protein (cyno)
T1 chain: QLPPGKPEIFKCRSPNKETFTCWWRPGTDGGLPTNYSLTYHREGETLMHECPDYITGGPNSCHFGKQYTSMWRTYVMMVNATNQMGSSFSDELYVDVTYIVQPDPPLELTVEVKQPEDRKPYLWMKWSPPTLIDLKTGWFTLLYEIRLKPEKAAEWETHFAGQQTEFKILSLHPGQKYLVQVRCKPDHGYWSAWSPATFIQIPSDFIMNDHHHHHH
Test: ELISA on ECD
Protocol: Plates were blocked for 1 hour with Superblock (Pierce) and washed (3×) with wash buffer (lx PBS (pH 7.4), 0.05% Tween 20). ECD proteins were bound to the appropriate antibody (1 hour) in binding buffer (wash buffer plus 10% Superblock), washed (3×, wash buffer), and then incubated with serial dilutions of antibodies (1 hour) in binding buffer. […] Curves were fit with GraphPad 5 (Prizm) and EC50's were determined with curve fitting function of GraphPad 5.
recorded.metric: EC50

binder | result
Ab49 (antibody, human IgG1, kappa, V domains shown, humanized from Ab8; G1; also called Ab3 HC.1a and Ab3 LC.1b) VH: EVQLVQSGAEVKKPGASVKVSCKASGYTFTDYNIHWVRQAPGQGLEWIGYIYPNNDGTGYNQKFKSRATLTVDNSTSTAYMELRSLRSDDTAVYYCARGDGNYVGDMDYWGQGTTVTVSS VL: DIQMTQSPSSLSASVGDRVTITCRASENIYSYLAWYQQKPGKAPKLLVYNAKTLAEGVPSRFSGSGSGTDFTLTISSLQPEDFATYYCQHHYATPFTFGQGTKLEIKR | 361 pM
Ab21 (antibody, human IgG1, kappa, V domains shown, humanized from Ab6; G1; also called Ab1 HC.1a and Ab1 LC.2a) VH: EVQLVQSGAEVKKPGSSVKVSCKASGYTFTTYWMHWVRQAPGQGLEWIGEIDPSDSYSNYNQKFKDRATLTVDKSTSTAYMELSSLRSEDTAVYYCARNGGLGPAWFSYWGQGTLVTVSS VL: EIVMTQSPATLSVSPGERATLSCKASQYVGTAVAWYQQKPGQSPRLLIYSASNRYTGVPARFSDSGSGTEFTLTISSLQSEDFAVYFCQQYSSYPWTFGGGTKVEIKR | 53.8 pM
Ab13 (antibody, V domains shown, murine monoclonal, isotype G2a; also called murine Ab13) VH: QVQLQQPGAELVRPGTSVKLSCKASGYTFTSFWMHWVKQRPGQGLEWIGVIDPSDSHTNYNQKFKGKATLTVNTSSSTAYMHLSSLTSEDSAVYYCARGDYSNWFTYWGQGTLVTVSA VL: DVVMTQTPFSLPVSLGDQASISCRSSQSLVHSNGNTYLHWYLQKPGQSPKLLIYKVSNRFSGVPDRFSGSGSGTDFTLKISRVEAEDLELYFCSQSTHVPWTFGGGTKLEIK | 143 pM
Ab19 (antibody, human IgG1, kappa, V domains shown, humanized from Ab6; G1; also called Ab1 HC.1a and Ab1 LC.1a) VH: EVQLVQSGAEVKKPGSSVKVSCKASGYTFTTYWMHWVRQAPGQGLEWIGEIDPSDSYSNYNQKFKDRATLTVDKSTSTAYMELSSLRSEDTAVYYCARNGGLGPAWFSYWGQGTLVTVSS VL: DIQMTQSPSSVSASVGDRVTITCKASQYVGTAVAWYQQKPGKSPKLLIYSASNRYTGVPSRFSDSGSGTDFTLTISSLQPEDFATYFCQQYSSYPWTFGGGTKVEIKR | 57.5 pM
